# MEASURED ON: Gal4-HNF4α (human HNF4α LBD) (Homo sapiens, UniProt P41235)
# Construct: uniprot entry: P41235-1, residues 142-377; expressed in transfected cells; host or cells: HEK293T
# Sequence (P41235 142-377): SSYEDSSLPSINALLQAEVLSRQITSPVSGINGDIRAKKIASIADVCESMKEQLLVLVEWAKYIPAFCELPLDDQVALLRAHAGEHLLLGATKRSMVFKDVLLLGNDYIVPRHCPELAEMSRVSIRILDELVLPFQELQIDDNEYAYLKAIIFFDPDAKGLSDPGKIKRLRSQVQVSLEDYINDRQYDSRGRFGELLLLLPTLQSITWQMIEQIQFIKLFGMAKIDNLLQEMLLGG
# EXPERIMENTAL PROTOCOL: Hybrid Gal4-HNF4α reporter gene assay in transiently transfected HEK293T cells
# Type: cell-based
# CONDITION SUMMARY: Table S1, primary screening, 50 µM
ASSAY ENDPOINT: HNF4a-screening_activity_(mean_of_n=2)
// print number alone

Entry "NCc1cscn1" ; HNF4a-screening_activity_(mean_of_n=2) = 0.9617

HNF4a-screening_activity_(mean_of_n=2) in this record for CCN(CCCCO)C(C)Cc1ccc(OC)cc1 (centres unmarked) : 1.361

Measured HNF4a-screening_activity_(mean_of_n=2) of FC(F)(F)c1cc[nH]n1 [Prestw-Frag-3726, FC(F)(F)c1cc[nH]n1] : 0.9056

Value of HNF4a-screening_activity_(mean_of_n=2) reported for the compound "Nc1nncs1" is 1.011

Record summary for "OCc1ccc(F)cc1F" : reported HNF4a-screening_activity_(mean_of_n=2) = 0.9757

====

# MEASURED ON: Gal4-HNF4α (human HNF4α LBD) (Homo sapiens, UniProt P41235)
# Construct: uniprot entry: P41235-1, residues 142-377
# Sequence (P41235 142-377): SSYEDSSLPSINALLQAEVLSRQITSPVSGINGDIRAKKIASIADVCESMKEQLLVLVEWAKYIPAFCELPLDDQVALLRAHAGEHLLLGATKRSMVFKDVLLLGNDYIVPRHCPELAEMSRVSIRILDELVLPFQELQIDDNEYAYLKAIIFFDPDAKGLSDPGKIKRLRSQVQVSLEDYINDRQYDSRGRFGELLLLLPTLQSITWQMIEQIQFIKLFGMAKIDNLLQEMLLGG
# EXPERIMENTAL PROTOCOL: Hybrid Gal4-HNF4α reporter gene assay in transiently transfected HEK293T cells
# CONDITION SUMMARY: dose-response; inverse agonism; mean ± SD; read-out: Validated HNF4α Modulation IC50
ASSAY ENDPOINT: pIC50
Note on pIC50: it is the negative log10 of concentration, concentration in mol/L.

The compound "OC(c1ccc(F)cc1)c1ccc(F)cc1" , tested on Gal4-HNF4α (human HNF4α LBD) (Homo sapiens, UniProt P41235), showed pIC50 of 4.62

====

# MEASURED ON: Gal4-HNF4α (human HNF4α LBD) (Homo sapiens, UniProt P41235)
# Construct: uniprot entry: P41235-1, residues 142-377; expressed in transfected cells; host or cells: HEK293T
# EXPERIMENTAL PROTOCOL: Hybrid Gal4-HNF4α reporter gene assay in transiently transfected HEK293T cells
# Format: cell-based
# CONDITION SUMMARY: Table S1, primary screening, 50 µM
Consider the following compounds; for each one, report its HNF4a-screening_activity_(mean_of_n=2).
# output: bare number, no unit

// recorded HNF4a-screening_activity_(mean_of_n=2) for COc1ccc(CC(C)N)cc1 (centres unmarked) [Prestw-Frag-3342, COc1ccc(CC(C)N)cc1] : 1.446

For this compound ( c1ccc(C2CNCCO2)cc1 (centres unmarked) [Prestw-Frag-2958, C1COC(CN1)c1ccccc1] ), measured HNF4a-screening_activity_(mean_of_n=2) is 1.039

The compound listed as CS(=O)(=O)c1ccc(N)cc1 [Prestw-Frag-1214, CS(=O)(=O)c1ccc(N)cc1] has a reported HNF4a-screening_activity_(mean_of_n=2) of 1.202

Please fill in: HNF4a-screening_activity_(mean_of_n=2) reported for NCCc1c[nH]c2ccc(O)cc12 [Prestw-Frag-1643, NCCc1c[nH]c2ccc(O)cc12] = 1.007

Per the record, OC(c1ccc(Cl)cc1)c1ccccn1 (centres unmarked) [Prestw-Frag-1346, OC(c1ccc(Cl)cc1)c1ccccn1] has HNF4a-screening_activity_(mean_of_n=2) of 0.8912

Quick note, HNF4a-screening_activity_(mean_of_n=2) for C[C@@H](O)c1cc(C(F)(F)F)cc(C(F)(F)F)c1 [Prestw-Frag-2849, C[C@@H](O)c1cc(cc(c1)C(F)(F)F)C(F)(F)F] landed at 1.171

The reported HNF4a-screening_activity_(mean_of_n=2) of the compound NC(=O)[C@H](N)c1ccccc1 [Prestw-Frag-1099, N[C@@H](C(N)=O)c1ccccc1] was 1.079

// sample NC1CCC(=O)NC1=O (centres unmarked) [Prestw-Frag-3716, NC1CCC(=O)NC1=O] , its HNF4a-screening_activity_(mean_of_n=2) was 1.139

====

# MEASURED ON: Gal4-HNF4α (human HNF4α LBD) (Homo sapiens)
# Construct: uniprot entry: P41235-1, residues 142-377; expressed in transfected cells; host or cells: HEK293T
# EXPERIMENTAL PROTOCOL: Hybrid Gal4-HNF4α reporter gene assay in transiently transfected HEK293T cells
# Type: cell-based
# CONDITION SUMMARY: Table S1, primary screening, 50 µM
ASSAY ENDPOINT: HNF4a-screening_activity_(mean_of_n=2)
Form field (numeric): enter value without unit.

The compound listed as O=c1[nH]c2ccccc2n1C1CCNCC1 [Prestw-Frag-1587, O=c1[nH]c2ccccc2n1C1CCNCC1] has a reported HNF4a-screening_activity_(mean_of_n=2) of 1.041

Documented HNF4a-screening_activity_(mean_of_n=2) of "NC(=O)CN1C(=O)c2ccccc2C1=O" : 1.028

# HNF4a-screening_activity_(mean_of_n=2) (compound: "O=C(O)c1cnccn1" ) is 1.013

For "Oc1ccccc1C1CCCC1" the compound record lists HNF4a-screening_activity_(mean_of_n=2) as 0.8607

Record "CN(C)C(=O)Oc1ccccc1" . Reported HNF4a-screening_activity_(mean_of_n=2): 1.182

Form: compound = "COc1ccc(S(=O)(=O)N2CCNCC2)cc1" ; HNF4a-screening_activity_(mean_of_n=2) = 1.073

Measured HNF4a-screening_activity_(mean_of_n=2) of "Cc1cc(N)no1" : 0.9773

Form: compound = "CN1CCN(c2ccc(N)cc2)CC1" ; HNF4a-screening_activity_(mean_of_n=2) = 1.015

Quick note, HNF4a-screening_activity_(mean_of_n=2) for "COc1cc2ccncc2cc1OC" landed at 1.218

The reported value for "COc1ccc(C(=O)O)cc1N1CCCC1" in terms of HNF4a-screening_activity_(mean_of_n=2) is 1.093

Entry C[C@H]1NC(=O)NC1=O [Prestw-Frag-1311, C[C@H]1NC(=O)NC1=O] — recorded HNF4a-screening_activity_(mean_of_n=2) = 1.09

Sample "CCN(CC)C(=O)/C=C/c1ccccc1" ; HNF4a-screening_activity_(mean_of_n=2) observed: 0.9663

What the record says about CC(C)C1NCCc2c1[nH]c1ccccc21 (stereo not drawn) [Prestw-Frag-1264, CC(C)C1NCCc2c1[nH]c1ccccc21] : HNF4a-screening_activity_(mean_of_n=2) is 1.008

Entry "CS(=O)(=O)Nc1ccccc1" ; HNF4a-screening_activity_(mean_of_n=2) = 0.9874

# compound CN1Cc2c(N)cccc2C(c2ccccc2)C1 (stereo not drawn) ; its HNF4a-screening_activity_(mean_of_n=2) = 1.162

Memo: "NC(=O)c1ccccc1O" , reported HNF4a-screening_activity_(mean_of_n=2): 1.146

Record "NC(=O)Cc1ccccc1" . Reported HNF4a-screening_activity_(mean_of_n=2): 0.9823

Briefly, HNF4a-screening_activity_(mean_of_n=2) measured for "CC(C)(CN)c1ccccc1" : 1.132

====

# MEASURED ON: Gal4-HNF4α (human HNF4α LBD) (Homo sapiens)
# Construct: uniprot entry: P41235-1, residues 142-377; expressed in transfected cells; host or cells: HEK293T
# EXPERIMENTAL PROTOCOL: Hybrid Gal4-HNF4α reporter gene assay in transiently transfected HEK293T cells
# Assay type: cell-based
# CONDITION SUMMARY: Table S1, primary screening, 50 µM
ASSAY ENDPOINT: HNF4a-screening_activity_(mean_of_n=2)
// return just the number, without any unit appended

HNF4a-screening_activity_(mean_of_n=2) reading for COc1ccc(CCN)cc1O [Prestw-Frag-1064, COc1ccc(CCN)cc1O] : 1.012

For reference, reported HNF4a-screening_activity_(mean_of_n=2) for O=C(c1ccc(C(F)(F)F)cc1)C1CCCCC1 [Prestw-Frag-3334, FC(F)(F)c1ccc(cc1)C(=O)C1CCCCC1] stands at 1.014

Item: Cc1cc(=O)n(-c2ccccc2)[nH]1 [Prestw-Frag-1028, Cc1cc(=O)n([nH]1)-c1ccccc1] | HNF4a-screening_activity_(mean_of_n=2): 1.027
